- TESTED ON: PIK3CD (Human) (UniProt O00329)
- Sequence (O00329 whole entry, looked up): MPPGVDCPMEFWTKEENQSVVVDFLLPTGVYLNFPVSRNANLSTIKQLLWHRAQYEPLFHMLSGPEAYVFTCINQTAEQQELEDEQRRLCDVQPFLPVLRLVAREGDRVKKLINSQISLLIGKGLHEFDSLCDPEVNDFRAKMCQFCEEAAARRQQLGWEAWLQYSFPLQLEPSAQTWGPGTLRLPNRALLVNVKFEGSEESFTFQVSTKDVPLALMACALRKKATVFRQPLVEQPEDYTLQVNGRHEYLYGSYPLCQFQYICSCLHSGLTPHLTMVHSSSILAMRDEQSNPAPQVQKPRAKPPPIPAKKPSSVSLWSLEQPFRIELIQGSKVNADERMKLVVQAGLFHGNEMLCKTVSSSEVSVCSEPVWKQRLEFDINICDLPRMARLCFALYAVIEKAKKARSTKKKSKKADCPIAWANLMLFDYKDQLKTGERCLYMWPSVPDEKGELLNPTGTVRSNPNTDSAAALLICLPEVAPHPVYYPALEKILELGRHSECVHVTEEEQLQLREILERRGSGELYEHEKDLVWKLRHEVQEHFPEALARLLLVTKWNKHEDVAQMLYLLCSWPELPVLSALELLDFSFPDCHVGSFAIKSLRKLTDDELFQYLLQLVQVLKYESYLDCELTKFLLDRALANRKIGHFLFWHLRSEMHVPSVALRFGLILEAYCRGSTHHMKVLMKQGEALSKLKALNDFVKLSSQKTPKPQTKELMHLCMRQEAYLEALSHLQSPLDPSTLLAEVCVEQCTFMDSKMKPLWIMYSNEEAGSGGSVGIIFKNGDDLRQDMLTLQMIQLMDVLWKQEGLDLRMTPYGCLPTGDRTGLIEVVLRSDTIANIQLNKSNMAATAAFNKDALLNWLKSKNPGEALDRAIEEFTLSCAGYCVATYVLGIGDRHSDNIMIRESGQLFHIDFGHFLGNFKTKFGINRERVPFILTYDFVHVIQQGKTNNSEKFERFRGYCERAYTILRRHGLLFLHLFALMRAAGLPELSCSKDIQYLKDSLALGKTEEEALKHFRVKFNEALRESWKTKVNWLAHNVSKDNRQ
- PROTOCOL: Assessment of PIK3CD Kinase Activity
ASSAY ENDPOINT: IC50

[[record]]
compound = "C#Cc1cnc(N)nc1N[C@@H](C)c1cc2cccc(Cl)c2c(=O)n1-c1ccccc1"
tested_on = "PIK3CD (Human) (UniProt O00329)"
experimental_value = "< 100 nM"

[[record]]
compound = "C[C@H](Nc1nc(N)ncc1C#N)c1cc2cccc(-c3ccc(=O)n(C)c3)c2c(=O)n1-c1ccccc1"
tested_on = "PIK3CD (Human) (UniProt O00329)"
experimental_value = "< 100 nM"

[[record]]
compound = "C[C@H](Nc1nc(N)ncc1C#N)c1cc2ccccc2c(=O)n1-c1ccccc1"
tested_on = "PIK3CD (Human) (UniProt O00329)"
experimental_value = "< 100 nM"

[[record]]
compound = "C[C@H](Nc1cc(C(F)(F)F)nc(N)n1)c1cc2cccc(Cl)c2c(=O)n1-c1ccccc1"
tested_on = "PIK3CD (Human) (UniProt O00329)"
experimental_value = "> 10000 nM"

[[record]]
compound = "C[C@H](Nc1nc(N)ncc1C#N)c1cc2cccc(-c3ccc(NS(C)(=O)=O)cc3)c2c(=O)n1-c1ccccc1"
tested_on = "PIK3CD (Human) (UniProt O00329)"
experimental_value = "< 100 nM"


Query: What measured IC50 goes with "CCOc1cc(-c2cccc3cc([C@H](C)Nc4nc(N)ncc4C#N)n(-c4ccccc4)c(=O)c23)ccn1" ?
Response: < 100 nM

Query: Follow-up item: "COc1cc(-c2cccc3cc([C@H](C)Nc4nc(N)ncc4-c4ccncc4)n(-c4ccccc4)c(=O)c23)ccn1"
Response: < 100 nM

Query: Follow-up item: "Cc1ncc(-c2cccc3cc([C@H](C)Nc4nc(N)ncc4C#N)n(-c4ccccc4)c(=O)c23)s1"
Response: < 100 nM

Query: Follow-up item: "COc1cc(-c2cccc3cc([C@H](C)Nc4nc(N)ncc4-c4cccnc4)n(-c4ccccc4)c(=O)c23)ccn1"
Response: 100 to 1000 nM

Query: Follow-up item: "CNS(=O)(=O)c1cccc(-c2cnc(N)nc2N[C@@H](C)c2cc3cccc(Cl)c3c(=O)n2-c2ccccc2)c1"
Response: 100 to 1000 nM

Query: Follow-up item: "C[C@H](Nc1nc(N)ncc1[N+](=O)[O-])c1cc2cccc(Cl)c2c(=O)n1-c1ccccc1"
Response: < 100 nM

Query: Follow-up item: "C[C@H](Nc1nc(N)ncc1C#N)c1cc2cccc(Cl)c2c(=O)n1-c1c(F)cc(F)cc1F"
Response: 100 to 1000 nM

Query: Follow-up item: "Cc1nc(N)nc(N[C@@H](C)c2cc3cccc(Cl)c3c(=O)n2-c2ccccc2)c1C#N"
Response: < 100 nM
